- System: human intestinal S9 fractions (mixture of SULT enzymes)
- protocolConditions: pH 7.4
readoutLabel: Km (µM)
Write down the numeric answer in µM and omit the unit.

Problem: Param item = COc1ccc(CC(C)NCC(O)c2cc(O)cc(O)c2)cc1 [(S,S)-MF, 4-methoxyfenoterol] ; retrieve measured Km.
Solution: 89

Problem: GET /values?readout=Km&item= COc1ccc(CC(C)NCC(O)c2cc(O)cc(O)c2)cc1 [(R,S)-MF, 4-methoxyfenoterol]
Solution: 68.5

Problem: # input compound: COc1ccc(CC(C)NCC(O)c2cc(O)cc(O)c2)cc1 [(S,R)-MF, 4-methoxyfenoterol] ; wanted: its Km
Solution: 52

* * *

- System: human intestinal S9 fractions (mixture of SULT enzymes)
- testDetails: Kinetics of sulfation of MF stereoisomers by human intestinal S9 fractions
- protocolConditions: read-out: Km (Michaelis constant) of sulfation; human intestinal S9 1 mg/ml, 200 µM PAPS, pH 7.4, 60 min; mean ± SE
readoutLabel: Km (µM)
Give just the numeric value; µM need not be written.

Problem: # lookup: Km of COc1ccc(C[C@@H](C)NC[C@H](O)c2cc(O)cc(O)c2)cc1 [(R,R)-MF, (R,R)-4-methoxyfenoterol]
Solution: 62

The reported measurements were obtained from paper PMC6131691.
